System: K-562 leukemia
assay_notes: NCI tumour cell line growth inhibition, 48 h
result_type: TGI

Known results for molecules:
[
  {
    "molecule": "CCSC1=C(C)N(C=NC(C)(C)C)CC1",
    "TGI": "> 100 µM"
  },
  {
    "molecule": "CCCCOC(=O)NC(=O)c1cn(CCSCCOC(=O)NCCCCCCNC(=O)OCCSCCn2cc(C(=O)NC(=O)OCCCC)c(=O)[nH]c2=O)c(=O)[nH]c1=O",
    "TGI": "> 100 µM"
  },
  {
    "molecule": "COc1cc2c(cc1O)CC13CCC(=O)N1CCc1cc(OC)c(O)c-2c13 (stereo not given)",
    "TGI": "> 68.1 µM"
  },
  {
    "molecule": "CO[C@@H]1CC(=O)C2(CC(=O)O[C@@H]2/C=C(\\C)CCC=C(C)C)C[C@@H]1O (stereo not given in full)",
    "TGI": "> 50 µM"
  },
  {
    "molecule": "C=CC1CC12C(=O)C1OC2(C)C2C(=O)c3c(O)ccc(O)c3C(=O)C12 (stereo not given)",
    "TGI": "6.95 µM"
  },
  {
    "molecule": "COc1cccc(Cc2c3cc(OC)ccc3cc[n+]2C)c1",
    "TGI": "> 100 µM"
  }
]

Notebook entry, K-562 leukemia assay: TGI of `Cc1ccc(SC2=CC(=O)c3nc4ccccc4c4ccnc2c34)cc1` = ?
> 100 µM

Same again, this time with O=C(O)c1ccc(N/C=C2\C(=O)c3ccccc3OC2O)cc1O (stereo not given)
87.2 µg/mL

Same again, this time with `O=C(Nc1ccccc1O)c1ccc(Oc2cccc(C(=O)Nc3ccccc3O)c2)cc1`
> 100 µM

Same again, this time with `NC(=S)Nc1[nH]c(=S)nc2c1SC1=N/C(=C\c3ccco3)C(=O)N12`
> 66.5 µM

Same again, this time with `C#CC(F)(F)[C@]1(O)CC[C@H]2[C@@H]3CCC4=CC(=O)CCC4=C3[C@@H](c3ccc(C(C)=O)cc3)C[C@@]21C`
> 100 µM

Same again, this time with `CCCCCCCCCCCCSC(=N)N`
4.64 µM

Same again, this time with `COc1cccc(/C=N/[N-]C(N)=O)c1[O-].[Ni+2].[OH3+].c1cnc2c(c1)ccc1cccnc12`
> 100 µM

Same again, this time with NC1=NC(c2ccc(Cl)cc2)C2=C(N1)/C(=C/c1ccc(Cl)cc1)CCC2 (stereo not given)
> 87.8 µM

Same again, this time with C#Cc1c(C(N)=O)ncn1C1OC(COP(=O)(OCc2ccc([N+](=O)[O-])o2)N(C)CCCCCl)C(O)C1O (stereo not given)
> 100 µM

* * *

This section presents compounds with their documented TGI values.
Test system: HT29 colon
assay_notes: NCI tumour cell line growth inhibition, 48 h

[
  {
    "compound": "COC(=O)/C=C(/C(=O)OC)c1c(C)c(C)c2c(C)cc(C)cc(C)c1-2",
    "TGI": "34.3 µM"
  },
  {
    "compound": "NC1=NC(c2ccc(Cl)cc2)C2=C(N1)/C(=C/c1ccc(Cl)cc1)CCC2 (configuration not stated)",
    "TGI": "9.78 µM"
  },
  {
    "compound": "COC(=O)C1(F)C(=O)NC(=O)NC1O (configuration not stated)",
    "TGI": "> 100 µM"
  },
  {
    "compound": "CC(=O)O[C@H]1CCC(C)=CCC[C@@]2(C)C(CC[C@@H]2[C@@H](C)/C=C/C(C)C)c2ccc(cc2C(=O)O)C1 (some centres not stated)",
    "TGI": "13.6 µM"
  },
  {
    "compound": "CC(CO)C1C[C@H](O)[C@@]2(C)CC(=O)C=C(CO)[C@@H]2C1 (some centres not stated)",
    "TGI": "> 100 µM"
  },
  {
    "compound": "COc1cc(/C=C2\\CCC(CN(C)C)C2=O)ccc1OC(=O)c1ccccc1 (configuration not stated)",
    "TGI": "26.6 µM"
  },
  {
    "compound": "O=C(C(=O)N1CC2C=CC1CC2)c1c[nH]c2ccccc12 (configuration not stated)",
    "TGI": "> 100 µM"
  },
  {
    "compound": "O=C1c2c(nc3ccccc3c2-c2ccccc2)CN1Nc1ccccn1",
    "TGI": "> 100 µM"
  }
]

Would you mind telling me what TGI value was observed for CC#CC1/C(=C\C(=O)OC)CCCC1O (configuration not stated) ?
> 100 µM

Same again, this time with `C=C1C(=O)O[C@H]2[C@H]1CC/C(COC(=O)CSCC(=O)OC/C1=C/CC[C@@]3(C)O[C@H]3[C@H]3OC(=O)C(=C)[C@@H]3CC1)=C\CC[C@@]1(C)O[C@@H]21`
2.56 µM

Same again, this time with `Cc1sc(/N=C/c2c[nH]c3ccccc23)c(C#N)c1C`
> 100 µM

Same again, this time with `CSc1c(C#N)c(=O)[nH]c2n[nH]c(C)c12`
> 100 µM

Same again, this time with `COc1ccc2c(c1)C(c1ccccc1Cl)=Nc1c(n[nH]c1C)N2`
> 25 µM

Same again, this time with `COc1ccccc1C#Cc1ccccc1C#CCCCCCC#Cc1ccccc1C#Cc1ccccc1OC`
> 100 µM

Same again, this time with CO[C@@H]1/C=C(C)/C=C/[C@@H](C)/C=C(\C)C(=O)OC(/C(C)=C/C=C(\C)CNC(=O)[C@H](CO)NC=O)[C@@H](C)/C=C/C=C/[C@H](OC)CC/C=C(C)/C=C/C1 (some centres not stated)
> 50 µM

Same again, this time with `NC(=S)Nc1[nH]c(=S)nc2c1SC1=N/C(=C\c3ccco3)C(=O)N12`
> 100 µM

Same again, this time with C1CCC(OC2CSC2)OC1 (configuration not stated)
> 100 µM

Same again, this time with `COC(=O)n1c(=O)n(-c2ccccc2)c(=O)n1C(=O)OC`
> 100 µM

Same again, this time with `O=C(NC1CCN(Cc2ccccc2)CC1)c1cc2nc(-c3ccc(Cl)s3)cc(C(F)(F)F)n2n1`
> 100 µM

Same again, this time with `O=C(N/N=C/c1cc(Cl)cc(Cl)c1[O-])c1ccccc1O.O=C(N/N=C/c1cc(Cl)cc(Cl)c1[O-])c1ccccc1O.[Ni+2]`
3.4 µM

Same again, this time with `C(=C\c1ccccc1)/C=N/c1nc2cc3sc(/N=C/C=C/c4ccccc4)nc3cc2s1`
> 100 µM

Same again, this time with CCCCOP1(=O)C=C(C)C(=C(Cl)Cl)C(C)=C1 (configuration not stated)
29.9 µM

* * *

Tested on: MCF7 breast
assay_notes: NCI tumour cell line growth inhibition, 48 h
result_type: log10 TGI (log10 of the value in µM)
Plainly stated, the numbers are log10 of TGI given in µM.

Known results for molecules:
[
  {
    "molecule": "CN(C)CCNC(=O)c1cccc2nc3c(nc12)-c1ccccc1C3=O",
    "log10 TGI": 1.39
  },
  {
    "molecule": "CCN1c2ccccc2C(Cl)(c2ccc(N(C)C)cc2)c2ccccc21",
    "log10 TGI": 1.48
  },
  {
    "molecule": "Nc1ccccc1N/C=C\\C(=O)C(Cl)(Cl)Cl",
    "log10 TGI": 1.49
  },
  {
    "molecule": "CN(C)C(=O)c1cc2cnc(Nc3ccc(-c4csc5c(=O)cc(N6CCOCC6)oc45)cc3)nc2n1C1CCCC1",
    "log10 TGI": 0.00
  },
  {
    "molecule": "C=C(C)C(=O)[C@@]12C(=O)[C@@H](C)CC[C@H]1[C@H](C)C[C@@H]2C=C(C)C",
    "log10 TGI": 1.72
  }
]

Consider the additional molecule presented here.
Would you mind telling me what log10 TGI value was observed for Cc1ccc2c(O)c(O)cc(NC(C)CCCN)c2n1 (stereo not given) ?
0.99

* * *

Tested on: OVCAR-8 ovarian
assay_notes: NCI tumour cell line growth inhibition, 48 h
result_type: TGI

Known results for compounds:
[
  {
    "compound": "Cc1ccnc2[nH]c(-c3ccccc3)cc(=O)c12",
    "TGI": "> 100 µM"
  },
  {
    "compound": "O=C1Cc2c([nH]c3ccc(Br)cc23)-c2ccccc2N1",
    "TGI": "> 100 µM"
  },
  {
    "compound": "O=C(OCC1CO1)c1cccs1 (stereo unspecified)",
    "TGI": "> 100 µM"
  },
  {
    "compound": "NC(=S)Nc1[nH]c(=S)nc2c1SC1=N/C(=C\\c3ccco3)C(=O)N12",
    "TGI": "> 100 µM"
  },
  {
    "compound": "CO[C@@H]1/C=C(C)/C=C/[C@@H](C)/C=C(\\C)C(=O)OC(/C(C)=C/C=C(\\C)CNC(=O)[C@H](CO)NC=O)[C@@H](C)/C=C/C=C/[C@H](OC)CC/C=C(C)/C=C/C1 (stereo partly specified)",
    "TGI": "3.18 µM"
  },
  {
    "compound": "O=c1[nH]c(=O)n(Cc2ccccc2CO)cc1Sc1ccccc1",
    "TGI": "48.2 µM"
  },
  {
    "compound": "CC(=O)OC1(C)C(=O)OC1(C)C(C)=O (stereo unspecified)",
    "TGI": "> 100 µM"
  },
  {
    "compound": "COc1ccc(/C=C/C(=O)Oc2cc(O)cc(O)c2)cc1",
    "TGI": "> 100 µM"
  },
  {
    "compound": "Cc1cc(Cc2cc(C)cc(C(C)(C)C)c2O)c(O)c(C(C)(C)C)c1",
    "TGI": "16.4 µM"
  },
  {
    "compound": "c1ccc2c(c1)nc(NC1CCCC1)c1[nH]c(C3CCCC3)nc12",
    "TGI": "24.3 µM"
  }
]

Consider the additional compound presented here.
Notebook entry, OVCAR-8 ovarian assay: TGI of `CC(=O)CCCCO` = ?
> 100 µM
